Value source: the supplement of paper PMC11061612

Bliss excess values, listed per item
Tested on: NOS-1 (Osteosarcoma)
Experiment: Bliss excess, mean over the matrix (fraction); higher = more synergy;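 also: after 72 h of two-drug dosing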

Solved cases (3 shown):
CN(CCO)CC[C@H](CSc1ccccc1)Nc1ccc(S(=O)(=O)NC(=O)c2ccc(N3CCC([C@@H](O)c4ccccc4-c4ccc(Cl)cc4)CC3)cc2)cc1S(=O)(=O)C(F)(F)F [AZD4320] + CN(C)CCCOc1ccc(-c2ccc3ncc4c(c3c2)n(C2CCOCC2)c(=O)n4C)cn1 [AZD0156] (first compound max 1 µM, 7x7, partner max 1 µM): 0.0203
CC1(C)CCC(CN2CCN(c3ccc(C(=O)NS(=O)(=O)c4ccc(NCC5CCOCC5)c([N+](=O)[O-])c4)c(Oc4cnc5[nH]ccc5c4)c3)CC2)=C(c2ccc(Cl)cc2)C1 [Venetoclax] + Cc1cc2ncnn2cc1Nc1ncc2c(n1)n(C1CCOCC1)c(=O)n2C [AZD7648] (first compound max 1 µM, 7x7, partner max 10 µM): -0.0504
NC1(C(=O)N[C@@H](CCO)c2ccc(Cl)cc2)CCN(c2ncnc3[nH]ccc23)CC1 [Capivasertib] + COc1nnc2ccc(N3CCC(c4ccc(OCCN5CCN(C)C(=O)[C@H]5C)cc4)CC3)nn12 [AZD5153] (first compound max 10 µM, 7x7, partner max 1 µM): 0.0423

Per the reported NOS-1 (Osteosarcoma) data, CC1(C)CCC(CN2CCN(c3ccc(C(=O)NS(=O)(=O)c4ccc(NCC5CCOCC5)c([N+](=O)[O-])c4)c(Oc4cnc5[nH]ccc5c4)c3)CC2)=C(c2ccc(Cl)cc2)C1 [Venetoclax] + C1CN(CCC1(C(=O)N[C@@H](CCO)C2=CC=C(C=C2)Cl)N)C3=NC=NC4=C3C=CN4 [Capivasertib] (first compound max 1 µM, 7x7, partner max 3 µM) has Bliss excess of -0.0157

Per the reported NOS-1 (Osteosarcoma) data, Cc1c2c(nn1C)CSCc1cc(n(C)n1)CSc1cc(c3ccccc3c1)OCCCc1c(C(=O)O)n(C)c3c-2c(Cl)ccc13 [AZD5991] + C[C@@H](Nc1cc(F)cc(F)c1)c1cc(C(=O)N(C)C)cc2c(=O)cc(N3CCOCC3)oc12 [AZD8186] (first compound max 1 µM, 7x7, partner max 3 µM) has Bliss excess of 0.023

Per the reported NOS-1 (Osteosarcoma) data, Cc1c2c(nn1C)CSCc1cc(n(C)n1)CSc1cc(c3ccccc3c1)OCCCc1c(C(=O)O)n(C)c3c-2c(Cl)ccc13 [AZD5991] + Cc1cc2ncnn2cc1Nc1ncc2c(n1)n(C1CCOCC1)c(=O)n2C [AZD7648] (first compound max 1 µM, 7x7, partner max 10 µM) has Bliss excess of 0.0112

Per the reported NOS-1 (Osteosarcoma) data, Cc1cc2ncnn2cc1Nc1ncc2c(n1)n(C1CCOCC1)c(=O)n2C [AZD7648] + CN(C)CCCOc1ccc(-c2ccc3ncc4c(c3c2)n(C2CCOCC2)c(=O)n4C)cn1 [AZD0156] (first compound max 10 µM, 7x7, partner max 1 µM) has Bliss excess of 0.0258

* * *

Bliss excess values, listed per item
Tested on: NB10 (Neuroblastoma)
Experiment: Bliss excess, mean over the matrix (fraction); higher = more synergy
Reply briefly: the number, and no unit.

Solved cases (3 shown):
Cc1cc2ncnn2cc1Nc1ncc2c(n1)n(C1CCOCC1)c(=O)n2C [AZD7648] + CCN(CCO)CCCOc1ccc2c(Nc3cc(CC(=O)Nc4cccc(F)c4)[nH]n3)ncnc2c1 [AZD2811] (first compound max 10 µM, 7x7, partner max 1 µM): 0.0524
COc1nnc2ccc(N3CCC(c4ccc(OCCN5CCN(C)C(=O)[C@H]5C)cc4)CC3)nn12 [AZD5153] + CCN(CCO)CCCOc1ccc2c(Nc3cc(CC(=O)Nc4cccc(F)c4)[nH]n3)ncnc2c1 [AZD2811] (first compound max 1 µM, 7x7, partner max 1 µM): -0.0289
CCN(CCO)CCCOc1ccc2c(Nc3cc(CC(=O)Nc4cccc(F)c4)[nH]n3)ncnc2c1 [AZD2811] + O=C(c1cc(Cc2n[nH]c(=O)c3ccccc23)ccc1F)N1CCN(C(=O)C2CC2)CC1 [Olaparib] (first compound max 1 µM, 7x7, partner max 10 µM): -0.0445

Consider now this further molecule.
Quick note, Bliss excess for CCN(CCO)CCCOc1ccc2c(Nc3cc(CC(=O)Nc4cccc(F)c4)[nH]n3)ncnc2c1 [AZD2811] + C[C@@H]1COCCN1C2=NC(=NC(=C2)C3(CC3)[S@](=N)(=O)C)C4=C5C=CNC5=NC=C4 [AZD6738] (first compound max 1 µM, 7x7, partner max 10 µM) landed at -0.056

* * *

Tested on: HuP-T4 (Pancreatic Carcinoma)
Test: Bliss excess, mean over the matrix (fraction); higher = more synergy
ASSAY_ENDPOINT: Bliss excess

Cc1c2c(nn1C)CSCc1cc(n(C)n1)CSc1cc(c3ccccc3c1)OCCCc1c(C(=O)O)n(C)c3c-2c(Cl)ccc13 [AZD5991] + CC1(C)CCC(CN2CCN(c3ccc(C(=O)NS(=O)(=O)c4ccc(NCC5CCOCC5)c([N+](=O)[O-])c4)c(Oc4cnc5[nH]ccc5c4)c3)CC2)=C(c2ccc(Cl)cc2)C1 [Venetoclax] (first compound max 1 µM, 7x7, partner max 1 µM): -0.0106

Consider now this further compound.
Quick note, Bliss excess for Cn1cnc2c(F)c(Nc3ccc(Br)cc3Cl)c(C(=O)NOCCO)cc21 [Selumetinib] + CC(C)n1c(=O)n(C)c2cnc3cc(F)c(-c4ccc(OCCCN5CCCCC5)nc4)cc3c21 [AZD1390] (first compound max 10 µM, 7x7, partner max 0.3 µM) landed at -0.0086

* * *

Test system: HOS (Osteosarcoma)
Assay: Bliss excess, mean over the matrix (fraction); higher = more synergy
Bliss excess values, listed per item
Reply briefly: the number, and no unit.

COc1cccc(OCCCN)c1-c1cc(Nc2cnc(C#N)cn2)n[nH]1 [Prexasertib] + O=C(c1cc(Cc2n[nH]c(=O)c3ccccc23)ccc1F)N1CCN(C(=O)C2CC2)CC1 [Olaparib] (first compound max 1 µM, 7x7, partner max 10 µM): -0.0168
COc1cc2c(cc1OCCCCCOc1cc3c(cc1OC)C(=O)N1C=C(C)C[C@H]1C=N3)N=C[C@@H]1CC(C)=CN1C2=O [SG3199] + O=C(c1cc(Cc2n[nH]c(=O)c3ccccc23)ccc1F)N1CCN(C(=O)C2CC2)CC1 [Olaparib] (first compound max 0.001 µM, 7x7, partner max 10 µM): -0.0232
CN(CCO)CC[C@H](CSc1ccccc1)Nc1ccc(S(=O)(=O)NC(=O)c2ccc(N3CCC([C@@H](O)c4ccccc4-c4ccc(Cl)cc4)CC3)cc2)cc1S(=O)(=O)C(F)(F)F [AZD4320] + C[C@@H]1COCCN1C2=NC(=NC(=C2)C3(CC3)[S@](=N)(=O)C)C4=C5C=CNC5=NC=C4 [AZD6738] (first compound max 1 µM, 7x7, partner max 10 µM): 0.0111
C=CCn1c(=O)c2cnc(Nc3ccc(N4CCN(C)CC4)cc3)nc2n1-c1cccc(C(C)(C)O)n1 [AZD1775] + Nc1ccn([C@@H]2O[C@H](CO)[C@@H](O)C2(F)F)c(=O)n1 [Gemcitabine] (first compound max 1 µM, partner max 0.3 µM): 0.0754
CCN(CCO)CCCOc1ccc2c(Nc3cc(CC(=O)Nc4cccc(F)c4)[nH]n3)ncnc2c1 [AZD2811] + O=C(c1cc(Cc2n[nH]c(=O)c3ccccc23)ccc1F)N1CCN(C(=O)C2CC2)CC1 [Olaparib] (first compound max 1 µM, 7x7, partner max 10 µM): -0.0188

Quick note, Bliss excess for Cc1c2c(nn1C)CSCc1cc(n(C)n1)CSc1cc(c3ccccc3c1)OCCCc1c(C(=O)O)n(C)c3c-2c(Cl)ccc13 [AZD5991] + Cc1cc2ncnn2cc1Nc1ncc2c(n1)n(C1CCOCC1)c(=O)n2C [AZD7648] (first compound max 1 µM, 7x7, partner max 10 µM) landed at -0.0036

Quick note, Bliss excess for CS(=O)(=O)CCNCc1ccc(-c2ccc3ncnc(Nc4ccc(OCc5cccc(F)c5)c(Cl)c4)c3c2)o1 [Lapatinib] + Cn1cnc2c(F)c(Nc3ccc(Br)cc3Cl)c(C(=O)NOCCO)cc21 [Selumetinib] (first compound max 10 µM, 7x7, partner max 10 µM) landed at -0.0848

Quick note, Bliss excess for C[C@@H](Oc1cc(-c2cnn(C3CCNCC3)c2)cnc1N)c1c(Cl)ccc(F)c1Cl [Crizotinib] + Cn1cnc2c(F)c(Nc3ccc(Br)cc3Cl)c(C(=O)NOCCO)cc21 [Selumetinib] (first compound max 10 µM, 7x7, partner max 10 µM) landed at -0.0566

Quick note, Bliss excess for Cc1cc2ncnn2cc1Nc1ncc2c(n1)n(C1CCOCC1)c(=O)n2C [AZD7648] + COc1cc([C@@H]2c3cc4c(cc3[C@@H](O[C@@H]3O[C@@H]5CO[C@@H](C)O[C@H]5[C@H](O)[C@H]3O)[C@H]3COC(=O)[C@H]23)OCO4)cc(OC)c1O [Etoposide] (first compound max 10 µM, 7x7, partner max 10 µM) landed at 0.0772

Quick note, Bliss excess for CN(CCO)CC[C@H](CSc1ccccc1)Nc1ccc(S(=O)(=O)NC(=O)c2ccc(N3CCC([C@@H](O)c4ccccc4-c4ccc(Cl)cc4)CC3)cc2)cc1S(=O)(=O)C(F)(F)F [AZD4320] + C1CN(CCC1(C(=O)N[C@@H](CCO)C2=CC=C(C=C2)Cl)N)C3=NC=NC4=C3C=CN4 [Capivasertib] (first compound max 1 µM, 7x7, partner max 3 µM) landed at -0.0467

Quick note, Bliss excess for COc1cc2ncnc(Nc3ccc(F)c(Cl)c3)c2cc1OCCCN1CCOCC1 [Gefitinib] + CC(C)n1c(=O)n(C)c2cnc3cc(F)c(-c4ccc(OCCCN5CCCCC5)nc4)cc3c21 [AZD1390] (first compound max 10 µM, 7x7, partner max 0.3 µM) landed at -0.0491
